Values compiled from patent EP1724268A1.

We begin with a simple list: items and their reported inhibition at 10 µM.
system: TGFβ signal; assay: TGFβ signal inhibitory activity, (SBE)4-Luc reporter in A549 cells (Test Examples 1A and 1B); assay type: cell-based, human; conditions: Homo sapiens, A549; test compound 10 µM; Reference Examples, Table 1B; read-out: TGFβ inhibition rate, %

smiles-str: CCC(=O)c1cccc(F)c1Oc1ccnc2cc(OC)c(OC)cc12
observed-measurement: 66%
--
smiles-str: CCOC(=O)c1cc(OC)ccc1Oc1ccnc2cc(OC)c(OC)cc12
observed-measurement: 100%
--
smiles-str: CCOC(=O)c1cc(Br)ccc1Oc1ccnc2cc(OC)c(OC)cc12
observed-measurement: 100%

Task item: Please give the measured inhibition at 10 µM for this compound: COc1cc2nccc(Oc3ccccc3C(=O)OCCC(C)C)c2cc1OC
Reply: 92%

Task item: Please give the measured inhibition at 10 µM for this compound: COc1cc2nccc(Oc3cccc(C(=O)c4ccccc4)c3)c2cc1OC
Reply: 46%

----------
We begin with a simple list: items and their reported inhibition at 3 µM.
tested on: TGFβ signal; assay: TGFβ signal inhibitory activity, (SBE)4-Luc reporter in A549 cells (Test Examples 1A and 1B); assay type: cell-based, human; details: Homo sapiens, A549; test compound 3 µM; TGFβ-1 2 ng/ml, 4 hr; Table 1A; read-out: TGFβ inhibition rate, %
Number only, in %; omit the unit.

See these solved cases before continuing.
smiles-str: CCc1ccc(Oc2ccnc3cc(OC)c(OC)cc23)c(-c2cccnc2)n1
inhibition at 3 µM [%]: 100
//
smiles-str: Cc1ccc(Oc2ccnc3ccc(OCCCN4CCC(Cc5ccccc5)CC4)cc23)c(-c2ncccn2)n1
inhibition at 3 µM [%]: 91
//
smiles-str: COC(=O)c1ccc2c(Oc3cc4cccnc4nc3-c3ccccc3)ccnc2c1
inhibition at 3 µM [%]: 95

Task item: Please give the measured inhibition at 3 µM for this compound: Cc1ccc(Oc2ccnc3ccc(OCCCN(CCO)c4ccccc4)cc23)c(-c2ncccn2)n1
Reply: 96

Task item: Please give the measured inhibition at 3 µM for this compound: CCc1ccc(Oc2ccnc3ccccc23)c(-c2ncccn2)n1
Reply: 96

----------
system: TGFβ signal; assay: TGFβ signal inhibitory activity, (SBE)4-Luc reporter in A549 cells (Test Examples 1A and 1B); type: cell-based, human; conditions: Homo sapiens, A549; test compound 3 µM; TGFβ-1 2 ng/ml, 4 hr; Table 1A; read-out: TGFβ inhibition rate, %
// No strictly below 90% in inhibition at 3 µM; Yes otherwise

Use these answered entries as a reference point.
compound: COc1cc2ncnc(Oc3cc(C)c(C)nc3-c3cccnc3)c2cc1OC [Compound 48]
assigned-label: No
//
compound: Brc1ccc(-c2nc3ncccc3cc2Oc2ccnc3ccccc23)cc1 [Compound 82]
assigned-label: No
//
compound: Cc1cc(Oc2ccnc3ccc(Cl)c(Cl)c23)c(-c2ccccn2)nc1C [Compound 130]
assigned-label: Yes
//
compound: Cc1cc(Oc2ncnc3ccsc23)c(-c2ccccn2)nc1C [Compound 33]
assigned-label: No

Task item: Is the recorded value of inhibition at 3 µM equal to or greater than 90% for this compound? COc1cc2nccc(Oc3cc4cnccc4nc3-c3cccnc3)c2cc1OC [Compound 95]
Reply: No

Task item: Is the recorded value of inhibition at 3 µM equal to or greater than 90% for this compound? Cc1cc(Oc2ccnc3cc(-c4cccnc4)ccc23)c(-c2ccccn2)nc1C [Compound 18]
Reply: Yes

Task item: Is the recorded value of inhibition at 3 µM equal to or greater than 90% for this compound? c1ccc(-c2nc3ncccc3cc2Oc2ccnc3ccccc23)cc1 [Compound 52]
Reply: Yes
